assay details: Pharmacokinetic Determination (Mouse PK)
Format: in vivo, female CD-1 mice
test parameters: female, CD-1, plasma, PO 10.0 mg/kg vs IV 3.0 mg/kg
measurement type: bioavailability (%)

Request: Entry C[C@@H]1Cc2c([nH]c3ccccc23)[C@@H](c2ccc(N[C@@H]3CN(CCCF)C[C@H]3F)cc2)N1C12CC(C1)C2 needs its bioavailability filled in; supply it.
Response: 59.2

Request: Entry C[C@@H]1Cc2c([nH]c3ccccc23)[C@@H](c2ccc(NC3CN(CCCF)C3)cc2)N1C12CC(C1)C2 needs its bioavailability filled in; supply it.
Response: 70.5

Request: Entry CCCN1CC[C@H](Nc2ccc([C@@H]3c4[nH]c5ccccc5c4C[C@@H](C)N3C34CC(C3)C4)cc2)C1 needs its bioavailability filled in; supply it.
Response: 51.5

Request: Entry C[C@@H]1Cc2c([nH]c3ccccc23)[C@@H](c2ccc(NC3CN(CCCF)C3)cc2F)N1C12CC(C1)C2 needs its bioavailability filled in; supply it.
Response: 47.3

Request: Entry C[C@@H]1Cc2c([nH]c3ccccc23)[C@@H](c2c(F)cc(NC3CN(CCCF)C3)cc2F)N1C12CC(C1)C2 needs its bioavailability filled in; supply it.
Response: 52.4

Request: Entry C[C@@H]1Cc2c([nH]c3ccccc23)[C@@H](c2ccc(N[C@H]3CCN(CCCF)C3)cc2)N1C12CC(C1)C2 needs its bioavailability filled in; supply it.
Response: 55.4

Request: Entry C[C@@H]1Cc2c([nH]c3ccccc23)[C@@H](c2c(F)cc(O[C@H]3CCN(CCCF)C3)cc2F)N1C12CC(C1)C2 (single isomer, unassigned) needs its bioavailability filled in; supply it.
Response: 49.5
